The reported numbers originate from ChEMBL document CHEMBL4689842.

Record form. Attribute: Population Healthy Nuclei (%). Fill in for each entry.
- Tested on: U2OS
- ASSAY NOTES: Multiplex assay against U2OS
- Assay type: toxicity, cell-based
- CONDITION: human, 48 h, 1 µM, compound concentration 1 uM, replicate 2
Answers are plain numbers, in %.

The following molecules have reported results that may help.
INSERT INTO measurements (molecule, reading) VALUES
  ('COc1cc2ncn(-c3cc(OCc4ccccc4C(F)(F)F)c(C(N)=O)s3)c2cc1OC [GW843682X]', 79),
  ('CN1CCN(Cc2ccc(Nc3ncc(Cl)c(Nc4ccccc4S(=O)(=O)N(C)C)n3)cc2)CC1 [DUBERMATINIB]', 78);

Entry "Cc1ccc(C)c(Oc2ccncc2C(=O)N2CCN(C3CC3)c3ccccc32)c1" , Population Healthy Nuclei (%) reported as 79
